Tested on: myeloid leukemia patient primary cells Pat.15
testDetails: cell viability (% survival relative to DMSO control); higher = less cytotoxic
reportedConditions: 10 nM; 72 h
propertyLabel: cell viability (%)
Answers are plain numbers, in %.

1) CCN(CC)C(=S)SSC(=S)N(CC)CC 87.7

For every record below, what is its cell viability?
1. Cc1cc2c(C(C)C)c(O)c(O)c(C=O)c2c(O)c1-c1c(C)cc2c(C(C)C)c(O)c(O)c(C=O)c2c1O
2. CO[C@H]1C[C@@H]2CC[C@@H](C)[C@@](O)(O2)C(=O)C(=O)N2CCCC[C@H]2C(=O)O[C@H]([C@H](C)C[C@@H]2CC[C@@H](OCCO)[C@H](OC)C2)CC(=O)[C@H](C)/C=C(\C)[C@@H](O)[C@@H](OC)C(=O)[C@H](C)C[C@H](C)/C=C/C=C/C=C/1C
3. O=C(O)CC[N+](=O)[O-]

[reply]
[85.9, 44.6, 79.1]

###

Answer each item with its documented cell viability.
System: myeloid leukemia patient primary cells Pat.12
testDetails: cell viability (% survival relative to DMSO control); higher = less cytotoxic
reportedConditions: 1 nM; 72 h
One number for each entry, in %.

1. CN1CCN(CCCN2c3ccccc3Sc3ccc(C(F)(F)F)cc32)CC1 95.7
2. O=c1cc(N2CCOCC2)oc2c(-c3ccccc3)cccc12 91.4
3. Cc1[nH]nc(C(F)(F)F)c1Cc1sc2c(c1C(=O)N1C[C@](C)(O)CO1)c(=O)n(C)c(=O)n2C(C)C 93.3
4. O=C(O)CC[N+](=O)[O-] 97.9

Lab note: next molecule to report on.
[ask] What value of measured cell viability is listed for Cn1cc(-c2ccncc2)c(-c2ccc(OCc3ccc4ccccc4n3)cc2)n1 ?
[reply] 98.4

###

System: MV4-11
testDetails: cell viability (% survival relative to DMSO control, bortezomib = 0%); higher = less cytotoxic
reportedConditions: 100 nM; 72 h
Structures can show the parent of a compound that is named as a salt.
propertyLabel: cell viability (%)
One number for each entry, in %.

Below are worked cases with known answers.
compound	unit	reportedResult
O=c1cc(N2CCOCC2)oc2c(-c3ccccc3)cccc12	%	0.364
CC(C)CC(=O)N[C@H](C(=O)N[C@H](C(=O)N[C@@H](CC(C)C)[C@@H](O)CC(=O)N[C@@H](C)C(=O)N[C@@H](CC(C)C)[C@@H](O)CC(=O)O)C(C)C)C(C)C [Pepstatin A]	%	90
O=c1c(-c2ccc(O)cc2)coc2cc(O[C@@H]3O[C@H](CO)[C@@H](O)[C@H](O)[C@H]3O)ccc12 [Daidzin]	%	106
CCc1c(C(=O)C(N)=O)c2c(OCC(=O)O)cccc2n1Cc1ccccc1 [Varespladib]	%	101
O=C1C(SCCO)=C(SCCO)C(=O)c2ccccc21	%	83.9
Cc1cc(C(=O)NNCc2ccccc2)no1 [Isocarboxazid]	%	97.5
Cc1cccc(Nc2cc(Cl)nc(SCC(=O)O)n2)c1C [Pirinixic acid]	%	102

[ask] Data request, read-out cell viability, for CCN(CCO)CCCC(C)Nc1ccnc2cc(Cl)ccc12 (stereo not drawn) [Hydroxychloroquine sulfate]
[reply] 93.2

###

Test system: THP-1
testDetails: cell viability (% survival relative to DMSO control, bortezomib = 0%); higher = less cytotoxic
reportedConditions: 1000 nM; 72 h
Can you tell me cell viability for the items I'm about to list?
One number for each entry, in %.

Answered cases to consult:
molecule	cell viability / %
C=CCN(C)CCCCCCOc1ccc(C(=O)c2ccc(Br)cc2)c(F)c1.O=C(O)/C=C/C(=O)O [Ro 48-8071 fumarate]	101
Cc1nc(-c2ccccc2)sc1C(=O)Nc1ccc(S(N)(=O)=O)cc1	94.7
CN(CCOc1ccc(Cc2sc(O)nc2O)cc1)c1ccccn1	90.6

Answer for every listed entry: what is its cell viability? The entries follow.
1. Cc1ccc(-c2cc(C(F)(F)F)nn2-c2ccc(S(N)(=O)=O)cc2)cc1
2. CCN(CC)C(=S)SSC(=S)N(CC)CC
3. CC(=O)Nc1nc(C)c(-c2ccc(Cl)c(S(=O)(=O)NCCO)c2)s1
4. CCCCCOC(=O)Nc1nc(=O)n([C@@H]2O[C@H](C)[C@@H](O)[C@H]2O)cc1F
5. N[C@@H](CC(=O)N1CCn2c(nnc2C(F)(F)F)C1)Cc1cc(F)c(F)cc1F

[reply]
1: 95.5; 2: 30.5; 3: 74.7; 4: 105; 5: 99

src = the supplement of paper PMC8671470
